# testedTarget: VIM-2 (Escherichia coli, UniProt Q5U7L7)
parameter: pKi
# pKi is unitless: minus log10 of the molar concentration; print number only

| smilesStructure | testedTarget | parameter | number |
| --- | --- | --- | --- |
| O=C(O)[C@@H]1CS[C@H]2CS[C@H](CS)N21 | VIM-2 (Escherichia coli, UniProt Q5U7L7) | pKi | 7.40 |

For the next question, use this molecule.
Q: Lab note: record pKi of `O=C(O)[C@H]1CS[C@@H]2CS[C@@H](CS)N12` tested on VIM-2 (Escherichia coli, UniProt Q5U7L7).
Ans: 6.74

----------
Listing of entries alongside the reported MIC.
# Tested on: E. coli DH10B pBCSK(−) producing R228Y
# assayComment: MIC by agar dilution, E. coli DH10B pBCSK
# Assay type: cell-based
# condition: Escherichia coli, MHA
Number only, in µg/mL; omit the unit.

| compound | MIC [µg/mL] |
| --- | --- |
| CO/N=C(\C(=O)N[C@@H]1C(=O)N2C(C(=O)[O-])=C(C[N+]3(C)CCCC3)CS[C@H]12)c1csc(N)n1 [cefepime] | 8 |
| CC1(C)S[C@@H]2[C@H](NC(=O)[C@H](N)c3ccccc3)C(=O)N2[C@H]1C(=O)O [ampicillin] | 1020 |
| CO/N=C(\C(=O)N[C@@H]1C(=O)N2C(C(=O)O)=C(CSc3nc(=O)c(=O)[nH]n3C)CS[C@H]12)c1csc(N)n1 [ceftriaxone] | 16 |

Q: Lab note: record MIC of C[C@@H](O)[C@H]1C(=O)N2C(C(=O)O)=C(SCCN=CN)C[C@H]12 [imipenem] tested on E. coli DH10B pBCSK(−) producing R228Y.
Ans: 1

----------
# Test system: E. coli pBC SK(−)
# assayComment: MIC by agar dilution, E. coli DH10B with empty pBC SK
# Format: cell-based
# condition: Escherichia coli, MHA
parameter: MIC

| compound | result |
| --- | --- |
| CC(=O)OCC1=C(C(=O)O)N2C(=O)[C@@H](NC(=O)Cc3cccs3)[C@H]2SC1 | 8 µg/mL |
| C[C@H]1[C@H](NC(=O)/C(=N\OC(C)(C)C(=O)O)c2csc(N)n2)C(=O)N1S(=O)(=O)O | ≤ 0.125 µg/mL |
| CO/N=C(\C(=O)N[C@@H]1C(=O)N2C(C(=O)O)=C(CSc3nc(=O)c(=O)[nH]n3C)CS[C@H]12)c1csc(N)n1 | 0.5 µg/mL |
| CO/N=C(\C(=O)N[C@@H]1C(=O)N2C(C(=O)[O-])=C(C[N+]3(C)CCCC3)CS[C@H]12)c1csc(N)n1 [cefepime] | 0.03 µg/mL |

Q: Identify the reported MIC for the following entry. `CC(C)(O/N=C(\C(=O)N[C@@H]1C(=O)N2C(C(=O)[O-])=C(C[n+]3ccccc3)CS[C@H]12)c1csc(N)n1)C(=O)O`
Ans: 0.06 µg/mL

Q: Identify the reported MIC for the following entry. `CC1(C)S[C@@H]2[C@H](NC(=O)[C@H](N)c3ccccc3)C(=O)N2[C@H]1C(=O)O`
Ans: 4 µg/mL

Q: Identify the reported MIC for the following entry. `CO/N=C(\C(=O)N[C@@H]1C(=O)N2C(C(=O)O)=C(COC(C)=O)CS[C@H]12)c1csc(N)n1`
Ans: 0.06 µg/mL

Q: Identify the reported MIC for the following entry. `C[C@@H](O)[C@H]1C(=O)N2C(C(=O)O)=C(SCCN=CN)C[C@H]12`
Ans: 0.25 µg/mL

Data origin: paper PMC4700511
